Record form. Attribute: Stability. Fill in for each entry.
- methodDescription: Stability of the compound in PBS containing 10% DMSO at 25 degC measured after 12 hrs by HPLC analysis
- Format: physicochemical
- statedConditions: buffer
Numbers only, in %.

As a guide, the following entries are already answered.
CC1CCCCC1NC(=O)CSc1nc2ccccc2c(=O)[nH]1 (configuration not stated)	137
O=C(CSc1nc2ccccc2c(=O)[nH]1)NC1CCCCCC1	92
O=C(CSc1nc2ccccc2c(=O)[nH]1)NCC1CCCCC1	112
CC1CCCC(NC(=O)CSc2nc3ccccc3c(=O)[nH]2)C1 (configuration not stated)	102
CC1CCC(NC(=O)CSc2nc3ccccc3c(=O)[nH]2)CC1 (configuration not stated)	100
C[C@H]1CC[C@H](NC(=O)CSc2nc3ccccc3c(=O)[nH]2)CC1	47

Let's switch to this compound now.
Exercise: Specify measured Stability for `O=C(CSc1nc2ccccc2c(=O)[nH]1)NC1CCCCC1` .
Solution: 101

====

Kindly supply the reported viability at 72 h, 10 ug/ml values for the records listed here.
- methodDescription: Cytotoxicity against human HepG2 cells assessed as cell viability at 10 ug/ml after 72 hrs by MTT assay (reference value: 100%)
- Format: cell-based
- statedConditions: read-out: Activity
Please don't drop the unit; write it after the number.

Please look at the items below and tell me viability at 72 h, 10 ug/ml for each one, in order.
1. CC1CCCCC1NC(=O)CSc1nc2ccccc2c(=O)[nH]1 (configuration not stated)
2. O=C(CSc1nc2ccccc2c(=O)[nH]1)NC1CCCCC1
3. O=C(CSc1nc2ccccc2c(=O)[nH]1)NCC1CCCCC1
4. CC1CCC(NC(=O)CSc2nc3ccccc3c(=O)[nH]2)CC1 (configuration not stated)

Solution:
1. 94%
2. 86%
3. 79%
4. 89%

Hi! Can you tell me viability at 72 h, 10 ug/ml for each of these compounds?
1. C[C@H]1CC[C@H](NC(=O)CSc2nc3ccccc3c(=O)[nH]2)CC1
2. O=C(CSc1nc2ccccc2c(=O)[nH]1)NC1CCCCCC1
3. CC1CCCC(NC(=O)CSc2nc3ccccc3c(=O)[nH]2)C1 (configuration not stated)

Solution:
1: 83%; 2: 99%; 3: 89%

====

- methodDescription: Stability of the compound in PBS containing 10% DMSO at 37 degC measured after 48 hrs by HPLC analysis
- Type: physicochemical
- statedConditions: read-out: Stability
Provide the recorded remaining at 48 h for the entries that follow.
Give bare numbers, in %.

Worked examples follow.
C[C@H]1CC[C@H](NC(=O)CSc2nc3ccccc3c(=O)[nH]2)CC1	50
CC1CCCCC1NC(=O)CSc1nc2ccccc2c(=O)[nH]1 (configuration not stated)	80
O=C(CSc1nc2ccccc2c(=O)[nH]1)NCC1CCCCC1	105
CC1CCC(NC(=O)CSc2nc3ccccc3c(=O)[nH]2)CC1 (configuration not stated)	48
O=C(CSc1nc2ccccc2c(=O)[nH]1)NC1CCCCC1	111
CC1CCCC(NC(=O)CSc2nc3ccccc3c(=O)[nH]2)C1 (configuration not stated)	98

// below: remaining at 48 h requested for another molecule
Exercise: Give the value of remaining at 48 h reported for the following: `O=C(CSc1nc2ccccc2c(=O)[nH]1)NC1CCCCCC1`
Solution: 71
